# EXPERIMENTAL_SYSTEM: Protein kinase C alpha type (Homo sapiens)
pIC50: −log10 of the molar value.
ATTRIBUTE_MEASURED: pIC50

Would you please look over these solved cases?
{"COMPOUND": "Cc1cc2c(cc1NC1CNC1)N1C(=NNC(=O)[C@@H]1C)CO2", "EXPERIMENTAL_SYSTEM": "Protein kinase C alpha type (Homo sapiens)", "ATTRIBUTE_MEASURED": "pIC50", "MEASURED": 5.52}
{"COMPOUND": "CC1C(=O)NN=C2COc3cc(C(F)(F)F)c(OC4CNC4)cc3N21 (centres undefined)", "EXPERIMENTAL_SYSTEM": "Protein kinase C alpha type (Homo sapiens)", "ATTRIBUTE_MEASURED": "pIC50", "MEASURED": 5.52}

1: CC1C(=O)NN=C2COc3cc(C(F)(F)F)c(NC4CNC4)cc3N21 (centres undefined)
2: CCC1C(=O)NN=C2COc3ccc(NC4CNC4)cc3N21 (centres undefined)
Ask: Compare pIC50: is it lower for 1 or for 2 ? Please respond with the label that marks your chosen entry.
Result: 2

###

pIC50: −log10 of the molar value.
These records show pIC50 for Voltage-gated inwardly rectifying potassium channel KCNH2 (Homo sapiens).

{"SMILES_REPRESENTATION": "C[C@@H]1C(=O)NN=C2COc3cc(C(F)(F)F)c(NC4(C)CNC4)cc3N21", "EXPERIMENTAL_SYSTEM": "Voltage-gated inwardly rectifying potassium channel KCNH2 (Homo sapiens)", "pIC50": "< 4.52"}

Ask: Supply pIC50 measured with Voltage-gated inwardly rectifying potassium channel KCNH2 (Homo sapiens) for C[C@@H]1C(=O)NN=C2COc3cc(C(F)(F)F)c(NC4CNC4)cc3N21 .
Sequence (Q12809 whole entry): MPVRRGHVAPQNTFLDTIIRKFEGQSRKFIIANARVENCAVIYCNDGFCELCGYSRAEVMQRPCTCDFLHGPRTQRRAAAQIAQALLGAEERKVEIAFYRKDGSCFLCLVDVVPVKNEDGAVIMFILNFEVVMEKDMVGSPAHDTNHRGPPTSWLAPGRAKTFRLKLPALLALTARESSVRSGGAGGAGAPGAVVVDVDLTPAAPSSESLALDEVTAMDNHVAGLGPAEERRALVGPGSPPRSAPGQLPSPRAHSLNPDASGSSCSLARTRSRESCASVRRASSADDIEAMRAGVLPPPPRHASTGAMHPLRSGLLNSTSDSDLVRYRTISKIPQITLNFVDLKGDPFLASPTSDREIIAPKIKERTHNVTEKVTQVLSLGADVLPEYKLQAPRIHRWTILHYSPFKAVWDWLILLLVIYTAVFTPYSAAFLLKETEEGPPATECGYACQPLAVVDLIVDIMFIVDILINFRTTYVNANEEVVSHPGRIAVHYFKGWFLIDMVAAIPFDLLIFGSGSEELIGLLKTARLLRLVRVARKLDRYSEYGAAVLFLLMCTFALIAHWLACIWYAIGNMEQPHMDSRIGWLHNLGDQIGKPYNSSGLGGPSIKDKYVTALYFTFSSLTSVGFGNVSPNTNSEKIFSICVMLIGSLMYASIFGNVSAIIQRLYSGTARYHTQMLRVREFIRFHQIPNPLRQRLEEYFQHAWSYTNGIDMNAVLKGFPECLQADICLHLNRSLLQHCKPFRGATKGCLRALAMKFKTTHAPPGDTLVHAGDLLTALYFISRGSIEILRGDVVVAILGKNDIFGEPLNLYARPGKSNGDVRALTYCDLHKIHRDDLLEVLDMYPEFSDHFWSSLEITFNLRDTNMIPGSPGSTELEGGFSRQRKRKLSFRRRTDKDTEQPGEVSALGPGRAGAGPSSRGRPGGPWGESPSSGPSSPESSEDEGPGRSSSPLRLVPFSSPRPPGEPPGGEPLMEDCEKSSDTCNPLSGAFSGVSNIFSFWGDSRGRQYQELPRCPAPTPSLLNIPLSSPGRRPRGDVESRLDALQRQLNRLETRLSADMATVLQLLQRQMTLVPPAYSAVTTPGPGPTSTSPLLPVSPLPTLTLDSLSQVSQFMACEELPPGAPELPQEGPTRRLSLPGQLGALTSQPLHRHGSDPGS
Result: < 4.52

###

# EXPERIMENTAL_SYSTEM: Protein kinase C theta type (Homo sapiens)
# Sequence (Q04759 whole entry): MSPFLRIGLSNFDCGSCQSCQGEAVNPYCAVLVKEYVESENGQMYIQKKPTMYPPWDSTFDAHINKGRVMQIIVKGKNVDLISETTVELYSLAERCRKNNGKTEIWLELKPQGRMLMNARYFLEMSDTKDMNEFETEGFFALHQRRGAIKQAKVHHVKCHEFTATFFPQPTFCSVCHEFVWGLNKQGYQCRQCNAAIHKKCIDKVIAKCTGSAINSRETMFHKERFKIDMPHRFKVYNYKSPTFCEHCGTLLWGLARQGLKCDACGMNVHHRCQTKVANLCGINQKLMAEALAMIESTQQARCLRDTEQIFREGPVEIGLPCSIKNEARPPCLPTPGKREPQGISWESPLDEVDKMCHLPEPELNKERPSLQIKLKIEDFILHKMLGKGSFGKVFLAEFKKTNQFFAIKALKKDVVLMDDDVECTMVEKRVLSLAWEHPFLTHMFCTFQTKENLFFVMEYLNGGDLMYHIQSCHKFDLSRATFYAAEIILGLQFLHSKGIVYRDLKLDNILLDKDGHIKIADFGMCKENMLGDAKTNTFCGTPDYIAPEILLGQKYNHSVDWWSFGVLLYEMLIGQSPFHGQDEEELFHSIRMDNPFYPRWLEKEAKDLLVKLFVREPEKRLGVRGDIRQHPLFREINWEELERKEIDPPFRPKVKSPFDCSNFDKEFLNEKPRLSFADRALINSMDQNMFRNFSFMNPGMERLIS
pIC50: −log10 of the molar value.
ATTRIBUTE_MEASURED: pIC50

{"COMPOUND": "O=C1CN2C(=NN1)COc1ccc(NC3CCCNC3)cc12 (centres undefined)", "EXPERIMENTAL_SYSTEM": "Protein kinase C theta type (Homo sapiens)", "pIC50": 4.85}

P: O=C1CN2C(=NN1)COc1ccc(NC(=O)C3CCNC3)cc12 (centres undefined)
Q: CC1C(=O)NN=C2COc3cc(C(F)(F)F)c(OC4CNC4)cc3N21 (centres undefined)
Ask: Dear colleague, could you let me know whether P or Q has the lower recorded pIC50? Thanks. Answer by stating the label of the chosen item.
Result: P

P: O=C1CN2C(=NN1)COc1ccc(NC3CCNCC3)cc12
Q: O=C1CN2C(=NN1)COc1ccc(NC3CCNC3)cc12 (centres undefined)
R: CN(C)CC(=O)Nc1ccc2c(c1)N1CC(=O)NN=C1CO2
S: CCC1C(=O)NN=C2COc3ccc(NC4CNC4)cc3N21 (centres undefined)
T: O=C1CN2C(=NN1)COc1ccc(NC3CCCNCC3)cc12 (centres undefined)
Ask: Put the compounds in ascending order of pIC50. Present the labels in the sequence the task asks for.
Result: R, P, T, Q, S
(R: 4.34, P: 4.68, T: 5.05, Q: 5.48, S: 6.00)

1: O=C1CN2C(=NN1)COc1ccc(NC(=O)C3CCNCC3)cc12
2: O=C1CN2C(=NN1)COc1ccc(NCC3CNC3)cc12
3: C[C@H]1C(=O)NN=C2COc3cc(-c4ccccc4)c(NC4CNC4)cc3N21
4: O=C1CN2C(=NN1)COc1ccc(NC3CCC3)cc12
5: CC1C(=O)NN=C2COc3ccc(NC4CNC4)cc3N21 (centres undefined)
Ask: Order the records so the highest pIC50 appears first and the lowest last. Could you list the labels in the order requested?
Result: 5, 3, 1, 2, 4
(5: 6.64, 3: 6.12, 1: 5.46, 2: 4.77, 4: 4.42)

I: CN1CCC(C(=O)Nc2ccc3c(c2)N2CC(=O)NN=C2CO3)CC1
II: CN(C)Cc1ccc2c(c1)OCC1=NNC(=O)CN12
III: CC1C(=O)NN=C2COc3cc(C(F)(F)F)c(CC4CNC4)cc3N21 (centres undefined)
IV: CC1C(=O)NN=C2COc3cc(F)c(NC4CNC4)cc3N21 (centres undefined)
Ask: List by increasing pIC50. Answer by writing out the labels in the requested order.
Result: II, I, IV, III

1: O=C1NN=C2COc3ccc(NC4CNC4)cc3N2C1C1CC1 (centres undefined)
2: O=C1CN2C(=NN1)COc1ccc(NCC3CCNC3)cc12 (centres undefined)
3: Cc1cc2c(cc1NC1CNC1)N1C(=NNC(=O)C1C)CO2 (centres undefined)
Ask: // sort entries: pIC50, high to low Put the labels in the requested order and list them out.
Result: 3, 1, 2
(3: 6.96, 1: 5.46, 2: 4.70)

###

# TEST_METHOD_NOTES: Unbound intrinsic clearance in human microsomes
# Format: ADME, Microsome
ATTRIBUTE_MEASURED: CL free (L/h/kg)

1: CC1C(=O)NN=C2COc3cc(C(F)(F)F)c(OC4CNC4)cc3N21 (stereo not given)
2: C[C@H]1C(=O)NN=C2COc3cc(C(F)(F)F)c(NC4CNC4)cc3N21
Ask: Given the listed items, does 1 or 2 have the lesser reported CL free? Lab note: record the label of whichever item you select.
Result: 1

###

# TEST_METHOD_NOTES: Unbound intrinsic clearance in rat microsomes
# Format: ADME, Microsome
Measured CL free by item

{"COMPOUND": "CC1C(=O)NN=C2COc3cc(C(F)(F)F)c(OC4CNC4)cc3N21 (stereo not given)", "CL free": "< 4.4 L/h/kg"}
{"COMPOUND": "C[C@@H]1C(=O)NN=C2COc3cc(C(F)(F)F)c(NC4(C)CNC4)cc3N21", "CL free": "< 3.3 L/h/kg"}
{"COMPOUND": "C[C@@H]1C(=O)NN=C2COc3cc(C(F)(F)F)c(NC4CNC4)cc3N21", "CL free": "< 4.7 L/h/kg"}
{"COMPOUND": "CC1C(=O)NN=C2COc3cc(C(F)(F)F)c(NC4CNC4)cc3N21 (stereo not given)", "CL free": "< 4 L/h/kg"}

Consider the record given below.
Ask: Note CL free for the compound shown: C[C@H]1C(=O)NN=C2COc3cc(-c4ccccc4)c(NC4CNC4)cc3N21
Result: < 6.2 L/h/kg

###

# EXPERIMENTAL_SYSTEM: Protein kinase C theta type (Homo sapiens)
ATTRIBUTE_MEASURED: IC50

# example entries with known answers
{"COMPOUND": "CC(N)CNc1ccc2c(c1)N1CC(=O)NN=C1CO2 (centres undefined)", "ATTRIBUTE_MEASURED": "IC50", "MEASURED": "18 µM"}
{"COMPOUND": "O=C1CN2C(=NN1)COc1ccc(NC(=O)CC3CCNCC3)cc12", "ATTRIBUTE_MEASURED": "IC50", "MEASURED": "> 50 µM"}
{"COMPOUND": "O=C1CN2C(=NN1)COc1ccc(NC3COC3)cc12", "ATTRIBUTE_MEASURED": "IC50", "MEASURED": "> 50 µM"}

Ask: Complete the entry with IC50 for O=C1NN=C2COc3ccc(NC4CNC4)cc3N2C1c1ccccc1 (centres undefined)
Result: > 50 µM

###

# TEST_METHOD_NOTES: Unbound intrinsic clearance in human microsomes
# Assay type: ADME, Microsome
CL free for assorted compounds

Solved entries:
{"COMPOUND": "C[C@H]1C(=O)NN=C2COc3cc(-c4ccccc4)c(NC4CNC4)cc3N21", "CL free": "110 mL/min/kg"}
{"COMPOUND": "CC1C(=O)NN=C2COc3cc(C(F)(F)F)c(CC4CNC4)cc3N21 (stereo not drawn)", "CL free": "< 46.7 mL/min/kg"}

Ask: Specify reported CL free for the compound shown: C[C@@H]1C(=O)NN=C2COc3cc(C(F)(F)F)c(NC4(C)CNC4)cc3N21
Result: < 33 mL/min/kg
